This collection of values is drawn from BindingDB's records for doi:10.1016/j.bmcl.2007.03.055.

# assayed system: Amyloid-beta precursor protein (Homo sapiens, UniProt P05067)
# Sequence (P05067 whole entry): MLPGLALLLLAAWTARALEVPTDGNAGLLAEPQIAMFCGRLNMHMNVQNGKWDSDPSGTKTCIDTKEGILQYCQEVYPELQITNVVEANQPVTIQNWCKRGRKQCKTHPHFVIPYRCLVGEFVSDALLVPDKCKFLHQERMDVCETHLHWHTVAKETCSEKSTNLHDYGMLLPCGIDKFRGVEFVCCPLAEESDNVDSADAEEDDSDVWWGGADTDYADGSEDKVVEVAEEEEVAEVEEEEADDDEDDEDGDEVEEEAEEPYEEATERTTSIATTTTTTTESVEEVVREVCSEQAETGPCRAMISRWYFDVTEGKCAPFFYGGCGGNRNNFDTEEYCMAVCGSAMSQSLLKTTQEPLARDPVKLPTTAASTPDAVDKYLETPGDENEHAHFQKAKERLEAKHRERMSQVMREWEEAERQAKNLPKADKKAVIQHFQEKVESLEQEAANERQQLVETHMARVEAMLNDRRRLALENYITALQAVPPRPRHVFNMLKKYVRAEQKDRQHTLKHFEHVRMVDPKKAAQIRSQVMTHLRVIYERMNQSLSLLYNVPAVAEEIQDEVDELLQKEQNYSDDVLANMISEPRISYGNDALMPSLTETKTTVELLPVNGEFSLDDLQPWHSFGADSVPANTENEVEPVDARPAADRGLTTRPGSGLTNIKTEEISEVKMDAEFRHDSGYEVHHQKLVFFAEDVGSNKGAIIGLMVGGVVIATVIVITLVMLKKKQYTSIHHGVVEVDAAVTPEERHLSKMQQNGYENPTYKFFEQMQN
reported property: IC50 (nM)
// note: answer is a bare numeric in nM

O=C(NCCCn1ccnc1)OCCC1CCc2ccccc2N1S(=O)(=O)c1ccc(Cl)cc1 (configuration not stated)	280

We next turn to a different compound, shown below.
The observed IC50 for CN1CCCC1CCNC(=O)OC[C@H]1CC[C@@H](c2ccccc2)N1S(=O)(=O)c1ccc(Cl)cc1 (some centres not stated) when tested with Amyloid-beta precursor protein (Homo sapiens, UniProt P05067) stands at 600
